target-desc: huPD1-ECD_Fc-knob/hole (P1AD9704) (human)
experiment-description: SPR, 25C
Measured Kd, listed per entry.
The reply should read as a number followed by its unit.

The binder listed as P1AI1650 PD1-376_VL2_VH4_I58T_P61A (antibody, V domains shown) VH: EVQLLESGGGLVQPGGSLRLSCAASGFSFSSYTMSWVRQAPGKGLEWVSAISGGGRDTYYADSVKGRFTISRDNSKNTLYLQMNSLRAEDTAVYYCVLLTGRVYFALDSWGQGTLVTVSS VL: DIVMTQSPDSLAVSLGERATINCKASESVDTSDNSFIHWYQQKPGQSPKLLIYRASTLESGVPDRFSGSGSGTDFTLTISSLQAEDVAVYYCQQNYDVPWTFGQGTKVEIKR shows Kd equal to 0.127 nM

The binder listed as P1AI1652 PD1-376_VL2_VH4_Y60F_D62E (antibody, V domains shown) VH: EVQLLESGGGLVQPGGSLRLSCAASGFSFSSYTMSWVRQAPGKGLEWVSAISGGGRDIYFPESVKGRFTISRDNSKNTLYLQMNSLRAEDTAVYYCVLLTGRVYFALDSWGQGTLVTVSS VL: DIVMTQSPDSLAVSLGERATINCKASESVDTSDNSFIHWYQQKPGQSPKLLIYRASTLESGVPDRFSGSGSGTDFTLTISSLQAEDVAVYYCQQNYDVPWTFGQGTKVEIKR shows Kd equal to 0.162 nM

The binder listed as P1AI1649 PD1-376_VL2_VH4_I58T (antibody, V domains shown) VH: EVQLLESGGGLVQPGGSLRLSCAASGFSFSSYTMSWVRQAPGKGLEWVSAISGGGRDTYYPDSVKGRFTISRDNSKNTLYLQMNSLRAEDTAVYYCVLLTGRVYFALDSWGQGTLVTVSS VL: DIVMTQSPDSLAVSLGERATINCKASESVDTSDNSFIHWYQQKPGQSPKLLIYRASTLESGVPDRFSGSGSGTDFTLTISSLQAEDVAVYYCQQNYDVPWTFGQGTKVEIKR shows Kd equal to 0.111 nM
